Test system: HS 578T breast
Method Notes: NCI tumour cell line growth inhibition, 48 h
Test Readout: GI50

Compound | Study System | Test Readout | Value Reported
COc1cc(Nc2cn[nH]c2-c2ccc(Cl)cc2)cc(OC)c1OC | HS 578T breast | GI50 | 3880 nM
CCOc1nc(-c2ccccc2)cc2c(O)c(-c3nnco3)[nH]c(=O)c12 | HS 578T breast | GI50 | 5390 nM
CCC[CH2][Sn]([CH2]CCC)([CH2]CCC)[O]C(=O)CC | HS 578T breast | GI50 | 180 nM
CC1OC2CC(=O)OC2C2=C1C(=O)c1c(O)cccc1C2=O (stereo not drawn) | HS 578T breast | GI50 | 261 nM
O=C(c1ccccc1)c1cc(Cl)ccc1OCCCCN1CCN(CCCCOc2ccc(Cl)cc2C(=O)c2ccccc2)CC1 | HS 578T breast | GI50 | 2190 nM
Cn1c(=O)c2c(nc(Nc3cc(=O)[nH]c(=O)[nH]3)n2Cc2ccccc2)n(C)c1=O | HS 578T breast | GI50 | > 100000 nM
Oc1ccc(Cl)cc1Cc1cc(Cl)cc(Cl)c1O | HS 578T breast | GI50 | 2610 nM
O=C(Nc1ccc(OS(=O)(=O)c2ccccc2)cc1)C12CC3CC(CC(C3)C1)C2 | HS 578T breast | GI50 | 7290 nM

====

System: NCI-H23 lung
Method Notes: NCI tumour cell line growth inhibition, 48 h

Molecule | TGI
Cn1cc(C2=C(c3ccc4ccccc4c3)C(=O)NC2=O)c2ccccc21 | > 25 µM
CC(=O)OC1CCC2(C)C3CCC4(C)C(c5ccc(=O)oc5)CC5OC54C3CCC2(O)C1 (stereo not given) | 2.98 µM
CCOP(=O)(Cc1ccc(CP(=O)(OCC)OCC)n1C)OCC | > 100 µM
CCC(=O)NC(Nc1cccc(F)c1C)(C(F)(F)F)C(F)(F)F | > 100 µM
COc1ccc(C2S/C(=C\c3ccccc3O)C(=O)N2NC(=O)Cc2ccccc2)cc1 (stereo not given) | > 100 µM

====

System: OVCAR-8 ovarian
Method Notes: NCI tumour cell line growth inhibition, 48 h
In this section, each of the compounds is paired with its reported TGI.
Test Readout: TGI

Compound | Value Reported
CCOC(=O)C1=CC(C)(C(=O)OCC)Nc2c(nc(OC)n(C)c2=O)N1 (stereo not given) | > 10 µM
COc1nc(C(=O)NNC(=O)c2nc(OC)c3ccccc3c2-c2ccccc2)c(-c2ccccc2)c2ccccc12 | > 100 µM
C[C@]12C=CC(=O)C=C1CC[C@H]1[C@@H]3C[C@@H](O)[C@](O)(C(=O)CO)[C@@]3(C)C[C@H](O)[C@@]12F | > 100 µM
O=C(O)CNc1cc(-c2ccccc2)nc(NCC(=O)O)n1 | > 100 µM
O=Cc1ccc2c(c1)CC1(C2)Cc2ccc3c(c2C1)CCC3 (stereo not given) | 29.8 µM
C#Cc1cccc(Nc2ncnc3cc(OC)c(OCCCCCCC(=O)NO)cc23)c1 | 4.43 µM
CN(c1ccc(Cl)cc1)S(=O)(=O)c1cccc([N+](=O)[O-])c1 | > 100 µM
Cc1cc(=O)[nH]c(NN2C(Cl)C(=O)C2c2cccc(O)c2)n1 (stereo not given) | > 100 µM
COc1ccc(C(=O)c2cc(OC)c(C)c(OC)c2)cc1OC(=O)CCl | > 100 µM
CCOP(=O)(Cc1ccc(CP(=O)(OCC)OCC)n1C)OCC | > 100 µM
